test system: Plasmodium falciparum; experiment: GSK_TCMDC: Inhibition of Plasmodium falciparum 3D7 in whole red blood cells, using parasite LDH activity as an index of growth. Test compounds present at 2uM; format: functional

{"columns": ["COMPOUND", "MEASURED_ON", "Inhibition"],
 "data": [
  ["CS(=O)(=O)c1cccc(-c2cnc(N)c3cc(-c4ccc(F)cc4)ccc23)c1", "Plasmodium falciparum", "91%"],
  ["Cc1nnsc1C(=O)Nc1cccc(-c2cccc(-c3nc4cc(C(F)(F)F)ccc4[nH]3)c2)c1", "Plasmodium falciparum", "100%"],
  ["COc1cccc2cc(C(=O)N[C@@H](CC(C)C)C(=O)N[C@H](/C=N/NC(=O)N3CCN(C)CC3)CCc3ccccc3)oc12.Cl", "Plasmodium falciparum", "85%"],
  ["CC(CCc1ccccc1)NCC(O)c1ccc2c3c(cccc13)C(=O)N2C.Cl (stereo not given)", "Plasmodium falciparum", "99%"],
  ["Cc1c(C2CCN(CCCCNC(=O)c3ccc(-c4ccc(C#N)cc4)cc3)CC2)c2ccccc2n1CCO", "Plasmodium falciparum", "96%"]
]}

###

test system: HepG2; assay: GSK_TCMDC: Percent inhibition of human HepG2 cell line. Test compounds present at 10uM.; assay type: functional
Each record here notes measured Inhibition.

{"columns": ["SMILES_STR", "Inhibition"],
 "data": [
  ["O=C(Nc1ccc(Cl)cc1)c1ccc(CN2CCCN(Cc3ccc(F)cc3)CC2)cc1.O=C(O)C(F)(F)F", "48%"],
  ["Cc1c(C)n(Cc2ccccc2)c2ncnc(OC3CCN(CC(=O)NCC4CC4)CC3)c12", "17%"],
  ["O=C(COc1ccc(Cl)c(Cl)c1)NCCCCCN1CCCN(C(=O)Nc2ccc(Cl)c(Cl)c2)CC1.O=C(O)C(F)(F)F", "29%"],
  ["O=C(/C=C/c1ccc(Cl)c(Cl)c1)NCCCCCN1CCC(c2c[nH]c3c(-c4ccccc4)cccc23)CC1", "74%"],
  ["O=C(NCCNc1noc(-c2sccc2Br)n1)c1ccc(Cl)cc1", "0%"]
]}

###

Each record here notes measured Inhibition.
test system: Plasmodium falciparum; assay: GSK_TCMDC: Inhibition of Plasmodium falciparum Dd2 in whole red blood cells, using parasite LDH activity as an index of growth. Test compounds present at 2uM; assay type: functional
EXPERIMENTAL_READOUT: Inhibition (%)

{"columns": ["COMPOUND", "EXPERIMENTAL_READOUT", "VALUE_UNITS", "OBSERVED_VALUE"],
 "data": [
  ["CC(C)(C)c1ccc(CNC(=O)c2ccc(-c3nc4cc(C(C)(C)C)ccc4[nH]3)cc2)cc1", "Inhibition", "%", 49],
  ["CCOc1ccc(Cc2c(C)nc3nc(N)nc(N)c3c2C)cc1.Cl", "Inhibition", "%", 7],
  ["Cc1cc(=O)c(-c2ccc(OCCSc3ccc(C(F)(F)F)cn3)cc2)c(C)[nH]1", "Inhibition", "%", 96],
  ["CCN(CC)CCNc1nccc(N(C)c2ccc(NC(=O)Nc3cc(C(F)(F)F)ccc3F)cc2)n1.O=C(O)C(F)(F)F", "Inhibition", "%", 25],
  ["CCOC(=O)Cn1ccc2c(NCc3ccccc3)nc(C)nc21", "Inhibition", "%", 0],
  ["O=C(Nc1ccc2c(c1)CN(Cc1ccc(N3CCCC3)o1)CCC2)c1ccoc1.O=CO", "Inhibition", "%", 76],
  ["O=C(c1ccc(F)c(F)c1)N1CCOC(CCN2CCC(c3ccccc3)CC2)(c2ccc(Cl)c(Cl)c2)C1 (centres undefined)", "Inhibition", "%", 75],
  ["Fc1ccc2[nH]c(-c3ccc(-c4ccc(CN5CCN(c6ccncc6)CC5)cc4)cc3)nc2c1.O=C(O)C(F)(F)F", "Inhibition", "%", 100],
  ["COc1ccc2[nH]ccc(=NN=Cc3ccccc3Cl)c2c1", "Inhibition", "%", 99]
]}

###

system: Plasmodium falciparum; assay: GSK_TCMDC: Inhibition of Plasmodium falciparum 3D7 in whole red blood cells, using parasite LDH activity as an index of growth. Test compounds present at 2uM; type: functional
Each record here notes measured Inhibition.
EXPERIMENTAL_READOUT: Inhibition (%)

{"columns": ["COMPOUND", "OBSERVED_VALUE"],
 "data": [
  ["CC(C)(C)c1cc(C(=O)N2CCN(c3ccc(C(F)(F)F)cn3)CC2)n(Cc2ccc(F)cc2)n1", 88],
  ["O=C(/C=C/c1ccc(Cl)c(Cl)c1)NCCCCCN1CCC(NC(=O)Nc2ccc(Cl)cc2Cl)CC1", 91],
  ["Cl.O=C(Nc1ccc2c(c1)CNCC2)c1ccc(-c2ccc(Cl)cc2)cc1", 96],
  ["Cc1ccc(F)cc1S(=O)(=O)NCC(C)c1ccc(NC(=O)Nc2cccc(F)c2)cc1 (configuration not stated)", 95],
  ["COc1ccc(C2CC(=O)C3=C(C2)NC(C)=C(C(=O)OC(C)C)C3c2ccc(O)cc2)cc1OC (configuration not stated)", 99],
  ["CN(C)C(CNc1ncnc2cc(Cl)ccc12)Cc1ccccc1 (configuration not stated)", 96],
  ["Cn1nc(-c2ccc(CNC3CCc4ccccc43)cc2)c2cnc(NCCN3CCCC3)nc21 (configuration not stated)", 99],
  ["CC1CCc2c(C(=O)Nc3c(F)cc(F)cc3Br)csc2C1 (configuration not stated)", 96],
  ["CN1CCN(CC(=O)Nc2ccc(-c3ccc(-c4nc5ccccc5[nH]4)s3)cc2)CC1", 100],
  ["CC1(C)NC(N)=NC(=N)N1OCOc1ccc(Cl)cc1.Cl", 94],
  ["CC(C)(C)c1ccc(CN2CCC(NC(=O)c3ccc(-c4cccc(Cl)c4)s3)CC2)cc1.O=C(O)C(F)(F)F", 99],
  ["CN(C)Cc1cccc(-c2ccc3ccnc(N)c3c2)c1", 99],
  ["COc1ccc(CCN(C)CCCOc2ccc(NC(=O)COc3cccc4sc5ccccc5c(=O)c34)cc2)cc1OC", 94],
  ["O=C(Nc1cccc(CN2CCCN(CC3CC3)CC2)c1)c1ccc(-c2ccccc2)cc1.O=C(O)C(F)(F)F", 96],
  ["Cc1ccc(Nc2nc3cc(Nc4ccnc(Nc5ccc(CS(C)(=O)=O)cc5)n4)ccc3o2)cc1", 99],
  ["Cc1cc2nc(-c3ccc(OCC(=O)NCc4ccc(C(C)(C)C)cc4)cc3)[nH]c2cc1C", 94],
  ["CN(C)CCOc1ccc2c(c1)CN(C)CC2c1ccccc1.Cl (configuration not stated)", 91],
  ["CN(C)CCN1CCN(CCCN2c3ccccc3Sc3ccc(C(F)(F)F)cc32)CC1.Cl", 99],
  ["Cc1ccccc1C1CCN(C2CCC(NC(=O)c3cc(-c4ccccc4)oc3C)CC2)CC1 (configuration not stated)", 100],
  ["CN1CCN(Cc2cc3cc(NC(=O)/C=C/c4ccc(Cl)cc4)ccc3s2)CC1.Cl", 100],
  ["CCC1CN2CCc3c([nH]c4ccccc34)[C@@H]2C[C@@H]1CC1NCCc2cc(OC)c(OC)cc21.Cl (some centres not stated)", 100],
  ["CS(=O)(=O)CCNC(=O)c1ccc(-c2cc3c(Nc4ccc5c(cnn5Cc5ccccc5)c4)ncnc3cn2)o1.Cl", 97],
  ["Nc1nc(N)c2c(Oc3cccc4ccccc34)cccc2n1", 96],
  ["O=C(O)C(F)(F)F.O=c1[nH]ccc2nc(N[C@@H]3CCNC3)nc(Nc3ccc4c(c3)S(=O)(=O)CC4)c12", 100],
  ["COc1ccc(C=NN=c2cc(C)[nH]c3ccccc23)c2ccccc12", 99],
  ["CC(C)(C)NC(=O)C(c1ccc(F)cc1)N(C(=O)c1ccc(CN2CCOCC2)o1)c1ccc(C2CCCCC2)cc1 (configuration not stated)", 87],
  ["CC(C)(C)Nc1nc(Nc2cccc([N+](=O)[O-])c2)nc(-n2ccnc2)n1", 98],
  ["CN(C)c1ccc(C=CC(=O)NC(=O)c2ccccc2O)cc1", 92],
  ["O=C(N[C@@H](CC1CCCCC1)C(=O)NCCN1CCCC1)c1ccc(O)c(-c2ccc(Cl)c(Cl)c2)c1", 99],
  ["Cc1cc(-c2nc3cncc(-c4cccc(CN5CCCC5Cc5cccnc5)c4)c3n2C)nn1C.O=C(O)C(F)(F)F (configuration not stated)", 83],
  ["O=C(NCCc1cccc(Cl)c1Cl)c1cnc(N2CCN(c3ccncc3)CC2)c(Cl)c1.O=C(O)C(F)(F)F", 100],
  ["O=C(Nc1ccc(-c2ccc(-c3nc4cc(C(F)(F)F)ccc4[nH]3)s2)cc1)c1c[nH]cn1", 92],
  ["COc1ccc(CN2C(=S)N(Cc3ccccc3)C(=O)C2CC(=O)Nc2ccccc2)cc1OC (configuration not stated)", 96],
  ["O=C(O)C(F)(F)F.O=S(=O)(NCCN1CCCC1)c1ccc(-c2cccc(CNC3Cc4ccccc4C3)c2)cc1", 99],
  ["O=C(Nc1cccc(F)c1)NC1CCN(CCCCCNC(=O)C2CC2c2ccc(Cl)c(Cl)c2)CC1 (configuration not stated)", 100],
  ["Cc1cc(N[C@@H](Cc2ccccc2)C(=O)NCCc2ccccc2)nc(NCCOc2ccccc2)n1.O=C(O)C(F)(F)F", 95],
  ["O=C(Nc1ccccc1F)N(CCCn1ccnc1)Cc1csc(-c2ccc(CNCc3ccccc3)cc2)n1.O=C(O)C(F)(F)F", 93]
]}

The measured values listed here are drawn from ChEMBL document CHEMBL1157539.
